These data points were gathered from ChEMBL document CHEMBL1140844.

biological target: UniProtKB P08908; test: Displacement of [3H]8-OH-DPAT from human cloned 5-HT1A receptor expressed in human HeLa cells at 10 uM; format: cell-based
Sequence (P08908 whole entry): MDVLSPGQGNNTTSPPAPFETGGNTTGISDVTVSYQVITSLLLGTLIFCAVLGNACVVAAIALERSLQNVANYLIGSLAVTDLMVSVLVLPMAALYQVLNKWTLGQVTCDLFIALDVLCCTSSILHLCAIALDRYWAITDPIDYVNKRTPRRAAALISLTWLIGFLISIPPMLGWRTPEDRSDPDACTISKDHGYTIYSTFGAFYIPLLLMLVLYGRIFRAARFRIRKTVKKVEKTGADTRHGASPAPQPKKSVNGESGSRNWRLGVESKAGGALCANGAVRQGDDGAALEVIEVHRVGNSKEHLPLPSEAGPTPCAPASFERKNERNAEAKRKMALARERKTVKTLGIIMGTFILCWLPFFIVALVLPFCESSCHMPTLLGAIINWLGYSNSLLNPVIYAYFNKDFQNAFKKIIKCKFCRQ
We use 30% as the dividing line for inhibition: on or above the line is true, below is false.

// inclusive: inhibition at least 30%? input: `COc1cccc(CCc2ccccc2OCCCCCN2CCN(c3cccc(Cl)c3)CC2)c1`
false

Then `COc1cccc(CCc2ccccc2OCCN2CCc3cc(OC)c(OC)cc3C2)c1` ?
false

Then `COc1cccc(CCc2ccccc2OCCCCN2CCN(c3ccc(F)cc3)CC2)c1` ?
true

Then `COc1cccc(CCc2ccccc2OCCCCN2CCN(c3cccc(C(F)(F)F)c3)CC2)c1` ?
true

Then `COc1cccc(CCc2ccccc2OCCCCN2CCN(C)CC2)c1` ?
true

Then `COc1cccc(CCc2ccccc2OCCCCCN2CCN(c3ccc(F)cc3)CC2)c1` ?
false

Then `COc1cccc(CCc2ccccc2OCCCCCN2CCN(c3ccccc3OC)CC2)c1` ?
false

Then `COc1cccc(CCc2ccccc2OCCN2CCN(C)CC2)c1` ?
true

Then `COc1cccc(CCc2ccccc2OCCCCCN2CCc3cc(OC)c(OC)cc3C2)c1` ?
false
